tested on: HCT-116; assay: Growth inhibition of human HCT116 cells; format: functional
Give log10(GI50) for every item shown.
In our notation, the value equals log10 of GI50 in nM.

**Query** Answer with the recorded log10(GI50) for the compound listed here: COc1cc2c3c(n(C[C@H](O)[C@H](O)[C@H](O)CO)c(=O)c2cc1OC)-c1cc2c(cc1C3=O)OCO2
**Result** 2.17

**Query** Answer with the recorded log10(GI50) for the compound listed here: O=C1c2ccccc2-c2c1c1ccc([N+](=O)[O-])cc1c(=O)n2C[C@@H](O)[C@H](O)[C@H](O)CO
**Result** 3.13

**Query** Answer with the recorded log10(GI50) for the compound listed here: COc1cc2c3c(n(C[C@@H](O)CO)c(=O)c2cc1OC)-c1cc2c(cc1C3=O)OCO2
**Result** 1.56

**Query** Answer with the recorded log10(GI50) for the compound listed here: COc1cc2c3c(n(C[C@@H](O)[C@@H](O)[C@H](O)CO)c(=O)c2cc1OC)-c1cc2c(cc1C3=O)OCO2
**Result** 2.95

**Query** Answer with the recorded log10(GI50) for the compound listed here: COc1cc2c3c(n(C[C@H](O)[C@@H](O)[C@H](O)CO)c(=O)c2cc1OC)-c1cc2c(cc1C3=O)OCO2
**Result** 1.77

**Query** Answer with the recorded log10(GI50) for the compound listed here: O=C1c2ccccc2-c2c1c1ccc([N+](=O)[O-])cc1c(=O)n2C[C@@H](O)[C@@H](O)[C@H](O)CO
**Result** 3.08

**Query** Answer with the recorded log10(GI50) for the compound listed here: O=C1c2ccccc2-c2c1c1ccc([N+](=O)[O-])cc1c(=O)n2C[C@@H](O)CO
**Result** 2.14

**Query** Answer with the recorded log10(GI50) for the compound listed here: COc1cc2c3c(n(CC(O)CO)c(=O)c2cc1OC)-c1cc2c(cc1C3=O)OCO2 (racemic)
**Result** 1.41

* * *

test: Growth inhibition of human SF539 cells; assay type: functional; details: SF-539
reported_property: GI50

**Query** Answer with the recorded GI50 for the compound listed here: O=C1c2ccccc2-c2c1c1ccc([N+](=O)[O-])cc1c(=O)n2C[C@H](O)[C@@H](O)[C@@H](O)[C@H](O)CO
**Result** 2570 nM

**Query** Answer with the recorded GI50 for the compound listed here: COc1cc2c3c(n(C[C@@H](O)[C@H](O)[C@H](O)CO)c(=O)c2cc1OC)-c1cc2c(cc1C3=O)OCO2
**Result** 174 nM

**Query** Answer with the recorded GI50 for the compound listed here: O=C1c2ccccc2-c2c1c1ccc([N+](=O)[O-])cc1c(=O)n2C[C@H](O)[C@H](O)[C@H](O)CO
**Result** 234 nM

**Query** Answer with the recorded GI50 for the compound listed here: O=C1c2ccccc2-c2c1c1ccc([N+](=O)[O-])cc1c(=O)n2CC(O)CO (racemic)
**Result** 339 nM

**Query** Answer with the recorded GI50 for the compound listed here: O=C1c2ccccc2-c2c1c1ccc([N+](=O)[O-])cc1c(=O)n2C[C@@H](O)[C@@H](O)[C@H](O)CO
**Result** 1740 nM

**Query** Answer with the recorded GI50 for the compound listed here: O=C1c2ccccc2-c2c1c1ccc([N+](=O)[O-])cc1c(=O)n2C[C@@H](O)[C@@H](O)[C@H](O)[C@H](O)CO
**Result** 3390 nM

**Query** Answer with the recorded GI50 for the compound listed here: O=C1c2ccccc2-c2c1c1ccc([N+](=O)[O-])cc1c(=O)n2C[C@@H](O)[C@H](O)[C@H](O)CO
**Result** 1450 nM

* * *

system: HOP-62; assay: Growth inhibition of human HOP62 cells; assay type: functional
reported_property: GI50 (nM)
# number only, unit nM dropped from output

**Query** Answer with the recorded GI50 for the compound listed here: O=C1c2ccccc2-c2c1c1ccc([N+](=O)[O-])cc1c(=O)n2C[C@H](O)[C@@H](O)[C@@H](O)[C@H](O)CO
**Result** 5130

**Query** Answer with the recorded GI50 for the compound listed here: COc1cc2c3c(n(C[C@@H](O)[C@H](O)[C@H](O)CO)c(=O)c2cc1OC)-c1cc2c(cc1C3=O)OCO2
**Result** 50100

**Query** Answer with the recorded GI50 for the compound listed here: O=C1c2ccccc2-c2c1c1ccc([N+](=O)[O-])cc1c(=O)n2C[C@@H](O)CO
**Result** 347

**Query** Answer with the recorded GI50 for the compound listed here: COc1cc2c3c(n(C[C@@H](O)[C@@H](O)[C@H](O)CO)c(=O)c2cc1OC)-c1cc2c(cc1C3=O)OCO2
**Result** 676

**Query** Answer with the recorded GI50 for the compound listed here: COc1cc2c3c(n(C[C@@H](O)CO)c(=O)c2cc1OC)-c1cc2c(cc1C3=O)OCO2
**Result** 36

**Query** Answer with the recorded GI50 for the compound listed here: COc1cc2c3c(n(CC(O)CO)c(=O)c2cc1OC)-c1cc2c(cc1C3=O)OCO2 (racemic)
**Result** 31

**Query** Answer with the recorded GI50 for the compound listed here: O=C1c2ccccc2-c2c1c1ccc([N+](=O)[O-])cc1c(=O)n2C[C@@H](O)[C@H](O)[C@H](O)CO
**Result** 1910

**Query** Answer with the recorded GI50 for the compound listed here: COc1cc2c3c(n(C[C@H](O)[C@H](O)[C@H](O)CO)c(=O)c2cc1OC)-c1cc2c(cc1C3=O)OCO2
**Result** 251

**Query** Answer with the recorded GI50 for the compound listed here: COc1cc2c3c(n(C[C@H](O)[C@@H](O)[C@H](O)CO)c(=O)c2cc1OC)-c1cc2c(cc1C3=O)OCO2
**Result** 27

**Query** Answer with the recorded GI50 for the compound listed here: O=C1c2ccccc2-c2c1c1ccc([N+](=O)[O-])cc1c(=O)n2CC(O)CO (racemic)
**Result** 324

**Query** Answer with the recorded GI50 for the compound listed here: COc1cc2c3c(n(C[C@H](O)CO)c(=O)c2cc1OC)-c1cc2c(cc1C3=O)OCO2
**Result** 28

**Query** Answer with the recorded GI50 for the compound listed here: O=C1c2ccccc2-c2c1c1ccc([N+](=O)[O-])cc1c(=O)n2C[C@H](O)[C@@H](O)[C@H](O)CO
**Result** 363

**Query** Answer with the recorded GI50 for the compound listed here: O=C1c2ccccc2-c2c1c1ccc([N+](=O)[O-])cc1c(=O)n2C[C@H](O)[C@H](O)[C@H](O)CO
**Result** 407

* * *

target: DNA topoisomerase 1 (Homo sapiens); assay: Inhibition of recombinant topoisomerase-1 (unknown origin) assessed as inhibition of 3'-[32P]-labeled DNA cleavage at 0.1 to 100 uM after 20 mins by PAGE analysis relative to control
Calls of active or inactive are those of the source. The calls are words filed in the database; no cut-off is given here.
reported_property: inhibition

The following compounds have reported results that may help.
>  <compound>
COc1cc2c3c(n(C[C@H](O)[C@@H](O)[C@H](O)CO)c(=O)c2cc1OC)-c1cc2c(cc1C3=O)OCO2

>  <result>
Active

$$$$
>  <compound>
O=C1c2ccccc2-c2c1c1ccc([N+](=O)[O-])cc1c(=O)n2C[C@@H]1O[C@H](CO)[C@@H](O)[C@H](O)[C@H]1O

>  <result>
50%

$$$$
>  <compound>
O=C1c2ccccc2-c2c1c1ccc([N+](=O)[O-])cc1c(=O)n2C[C@@H](O)[C@@H](O)[C@H](O)[C@H](O)CO

>  <result>
Active

$$$$
>  <compound>
O=C1c2ccccc2-c2c1c1ccc([N+](=O)[O-])cc1c(=O)n2C[C@H](O)[C@H](O)[C@H](O)CO

>  <result>
Active

$$$$
>  <compound>
O=C1c2ccccc2-c2c1c1ccc([N+](=O)[O-])cc1c(=O)n2CC(O)CO (racemic)

>  <result>
75%

$$$$
>  <compound>
O=C1c2ccccc2-c2c1c1ccc([N+](=O)[O-])cc1c(=O)n2C[C@@H](O)[C@@H](O)[C@H](O)CO

>  <result>
Active

$$$$

**Query** Answer with the recorded inhibition for the compound listed here: O=C1c2ccccc2-c2c1c1ccc([N+](=O)[O-])cc1c(=O)n2C[C@H](O)[C@@H](O)[C@H](O)CO
**Result** Active

* * *

tested on: HCT-116; assay: Growth inhibition of human HCT116 cells; format: functional
// assign criterion met if GI50 falls strictly below 100 nM, else criterion not met (ties count as criterion not met)

**Query** Check if GI50 falls below 100 nM for O=C1c2ccccc2-c2c1c1ccc([N+](=O)[O-])cc1c(=O)n2C[C@H](O)[C@H](O)[C@H](O)CO .
**Result** criterion not met

**Query** Check if GI50 falls below 100 nM for O=C1c2ccccc2-c2c1c1ccc([N+](=O)[O-])cc1c(=O)n2C[C@H](O)[C@@H](O)[C@H](O)CO .
**Result** criterion not met

**Query** Check if GI50 falls below 100 nM for COc1cc2c3c(n(C[C@H](O)CO)c(=O)c2cc1OC)-c1cc2c(cc1C3=O)OCO2 .
**Result** criterion met

**Query** Check if GI50 falls below 100 nM for COc1cc2c3c(n(C[C@@H](O)[C@H](O)[C@H](O)CO)c(=O)c2cc1OC)-c1cc2c(cc1C3=O)OCO2 .
**Result** criterion not met

**Query** Check if GI50 falls below 100 nM for O=C1c2ccccc2-c2c1c1ccc([N+](=O)[O-])cc1c(=O)n2CC(O)CO (racemic) .
**Result** criterion not met
